measured_target: M2 (Homo sapiens, UniProt P08172)
Sequence (P08172 1-466): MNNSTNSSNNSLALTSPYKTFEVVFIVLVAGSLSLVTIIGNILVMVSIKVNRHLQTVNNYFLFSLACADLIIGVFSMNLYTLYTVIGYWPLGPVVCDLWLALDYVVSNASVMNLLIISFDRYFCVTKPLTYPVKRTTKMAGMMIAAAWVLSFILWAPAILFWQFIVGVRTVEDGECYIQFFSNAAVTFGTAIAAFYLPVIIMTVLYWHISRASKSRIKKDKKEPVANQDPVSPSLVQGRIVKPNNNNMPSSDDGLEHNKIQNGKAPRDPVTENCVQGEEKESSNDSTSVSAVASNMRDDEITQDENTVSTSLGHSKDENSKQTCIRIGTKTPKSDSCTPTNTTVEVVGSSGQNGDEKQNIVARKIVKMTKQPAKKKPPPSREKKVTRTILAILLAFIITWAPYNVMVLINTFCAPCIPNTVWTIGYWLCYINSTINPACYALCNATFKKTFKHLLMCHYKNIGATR
assay_remarks: In vitro functional assay of muscarinic acetylcholine receptor activity, M2
measurement_setup: antagonist activity; M2 method not separately described
Reported IC50 values for a set of molecules

Before answering, review these 6 worked examples.
molecule	measured_parameter	assay_value
O=C1C(CCCc2cccc3ncsc23)C[C@H]2CN(c3ccncc3F)CCN12 (mixture of isomers) [Example 9]	IC50	1000 to 10000 nM
COc1ccc(N2CCN3C(=O)[C@@H](CCCc4cccc5ncnn45)C[C@H]3C2)cn1 [Example 38]	IC50	> 10000 nM
Nc1cc(N2CCN3C(=O)[C@@H](CCCc4cccc5ncsc45)C[C@H]3C2)ccn1 [Example 30]	IC50	1000 to 10000 nM
Cc1cnc(N2CCN3C(=O)[C@@H](CCCc4cccn5ncnc45)C[C@H]3C2)nc1 [Example 65]	IC50	1000 to 10000 nM
Cn1cnc2cccc(CCC[C@H]3C[C@H]4CN(c5ccc(C#N)cn5)CCN4C3=O)c21 [Example 54]	IC50	100 to 1000 nM
O=C1[C@@H](CCCc2cccn3nccc23)C[C@H]2CN(c3ncc(F)cn3)CCN12 [Example 88]	IC50	1000 to 10000 nM

Form field: reported IC50 of O=C1[C@@H](CCCc2cccc3ncnn23)C[C@H]2CN(c3ccc(OC(F)F)cn3)CCN12 [Example 39]
> 10000 nM

Then what about the molecule O=C1[C@@H](CCCc2cccc3ncsc23)C[C@H]2CN(c3ccccn3)CCN12 [Example 27] ?
> 10000 nM

Moving on to O=C1[C@H](CCCc2cccc3ncsc23)C[C@@H]2CN(c3ccncc3F)CCN12 [Example 8]
> 10000 nM

Here is the next molecule: N#Cc1ccc(N2CCN3C(=O)[C@@H](CCCc4cccc5ncsc45)C[C@H]3C2)nc1 [Example 10]
100 to 1000 nM
